- Tested on: THP-1 macrophages
- assay-remarks: Cytotoxicity against THP-1 macrophages (CellTiter-Blue)
- Format: cell-based, human
No end group written: not given here.
THP-1 macrophage CC50 by entry:

{"sequence-input": "AGRQALTLYLKEELRKRGKKWFIAW [Syn-xiamencin-33]", "target-or-test-system": "THP-1 macrophages", "THP-1 macrophage CC50": "< 20 µM"}
{"sequence-input": "AGKKTIRQYLKNKIKKKGRKWVIAW [Syn-safencin-60]", "target-or-test-system": "THP-1 macrophages", "THP-1 macrophage CC50": "< 20 µM"}
{"sequence-input": "AGKETIRKYLKNEIKKKGRKAVIAW [Syn-safencin 6]", "target-or-test-system": "THP-1 macrophages", "THP-1 macrophage CC50": "> 20 µM"}
{"sequence-input": "AGSERIAKELKKYIKKWKKVIRAAW [Syn-enterocin-48]", "target-or-test-system": "THP-1 macrophages", "THP-1 macrophage CC50": "< 20 µM"}
{"sequence-input": "AWKKTIRQYLKNEIKKKWRKAVIAW [Syn-safencin-90]", "target-or-test-system": "THP-1 macrophages", "THP-1 macrophage CC50": "< 20 µM"}

Query :: Identify measured THP-1 macrophage CC50 corresponding to AGKEKIRQFLKKTIQEKGKRAKIAW [Syn-larvacin-77]
Result :: < 20 µM

* * *

- Test system: THP-1 macrophages
- assay-remarks: Cytotoxicity against THP-1 macrophages (CellTiter-Blue)
- Format: cell-based, human
No end group written: not given here.
readout: THP-1 macrophage CC50

Some entries whose results are on file:
{"sequence-input": "AGKKTIRQYLKNKIKKKGRKAVWAW [Syn-safencin-76]", "THP-1 macrophage CC50": "< 20 µM"}
{"sequence-input": "AGKEWIFQRLKKKIQEKGKRATIAW [Syn-larvacin-19]", "THP-1 macrophage CC50": "< 20 µM"}
{"sequence-input": "AGWQRLTLYLKEELRKRGKKAFIAW [Syn-xiamencin-50]", "THP-1 macrophage CC50": "< 20 µM"}
{"sequence-input": "AGKETIRQYLKNEIKKKGRKAVWAW [Syn-safencin 73]", "THP-1 macrophage CC50": "> 20 µM"}
{"sequence-input": "AGKEKIRKKLKNEIKKKGRKAWIAW [Syn-safencin 72]", "THP-1 macrophage CC50": "> 20 µM"}
{"sequence-input": "AGKETIRQFLKKKIQEKGKIAKRAW [Syn-larvacin-94]", "THP-1 macrophage CC50": "< 20 µM"}

Query sequence follows.
Query :: Identify measured THP-1 macrophage CC50 corresponding to AGTEKIFNRLKKWINEGKKIAKRAW [Syn-larvacin-32]
Result :: < 20 µM

* * *

- Test system: THP-1 macrophages
- assay-remarks: Cytotoxicity against THP-1 macrophages (CellTiter-Blue)
- Assay type: cell-based, human
No end group written: not given here.
readout: THP-1 macrophage CC50

Some entries whose results are on file:
{"sequence-input": "WGKETIFQRLKKKIQEKGKRATIAW [Syn-larvacin-11]", "THP-1 macrophage CC50": "below 20 μM"}
{"sequence-input": "WGKETIRQYLKNKIKKKGRKAVIAW [Syn-safencin-11]", "THP-1 macrophage CC50": "below 20 μM"}
{"sequence-input": "AGRQALTLYLKEELRKRWKIAFKAW [Syn-xiamencin-22]", "THP-1 macrophage CC50": "< 20 µM"}
{"sequence-input": "AGKEKWRKKLKNEIKKKGRKAVIAW [Syn-safencin-32]", "THP-1 macrophage CC50": "< 20 µM"}
{"sequence-input": "AGKETIRQFLKKKIQEKGKRATIWW [Syn-larvacin-65]", "THP-1 macrophage CC50": "< 20 µM"}
{"sequence-input": "AGAQRLTKELLEYLRKFGKIWRKAW [Syn-xiamencin-39]", "THP-1 macrophage CC50": "< 20 µM"}

Query :: Identify measured THP-1 macrophage CC50 corresponding to AWKETIRQFLKKTIQEKGKRAKIAW [Syn-larvacin-37]
Result :: < 20 µM

Query :: Identify measured THP-1 macrophage CC50 corresponding to AGKETIRQYLKNKWKKKGRKAVIAW [Syn-safencin-43]
Result :: < 20 µM

Query :: Identify measured THP-1 macrophage CC50 corresponding to AGKKTIRQYWKNKIKKKGRKAVIAW [Syn-safencin-36]
Result :: < 20 µM
